Please respond with reported log10 of GI50 for every item in the list.
Test system: human colon adenocarcinoma Caco-2
Assay: MTS cytotoxicity assay, Caco-2
Type: cell-based
Settings: 48 h incubation
Record value = log10 of GI50 given in µM.

Check out these entries, answers already filled in.
{"compound": "OC[C@H]1OC(n2cnc3c(NN=C(c4ccccn4)c4ccccn4)ncnc32)[C@H](O)[C@@H]1O (stereo partly shown) [I-13]", "measured.value": -0.70}
{"compound": "C[C@@]1(O)[C@@H](CO)OC(n2cnc3c(NN=Cc4ccccn4)ncnc32)[C@@H]1O (stereo partly shown) [I-4]", "measured.value": 0.88}
{"compound": "OC[C@H]1OC(n2cnc3c(NN=Cc4cccnc4)ncnc32)[C@H](O)[C@@H]1O (stereo partly shown) [I-10]", "measured.value": -0.05}
{"compound": "OC[C@H]1OC(n2cnc3c(NN=Cc4ccccc4)ncnc32)[C@H](O)[C@@H]1O (stereo partly shown) [I-16]", "measured.value": 0.88}
{"compound": "OC[C@H]1OC(n2cnc3c(NN=Cc4ccncc4)ncnc32)[C@H](O)[C@@H]1O (stereo partly shown) [I-11]", "measured.value": 1.04}

// below: log10 of GI50 requested for another compound
For this compound ( OC[C@H]1OC(n2cnc3c(NN=Cc4ccccn4)ncnc32)[C@H](O)[C@@H]1O (stereo partly shown) [I-9] ), measured log10 of GI50 is -0.40

* * *

Tested on: human cervical adenocarcinoma HeLa
Test: MTS cytotoxicity assay, HeLa
Assay type: cell-based
Settings: Homo sapiens, HeLa, 48 h incubation
measured.attribute: GI50 (µM)
Answers are plain numbers, in µM.

Check out these entries, answers already filled in.
{"compound": "OC[C@H]1O[C@@H](n2cnc3c(NN=C(c4ccccc4)c4ccccn4)ncnc32)C(O)C1O (stereo partly drawn)", "measured.value": 36}
{"compound": "CC(=NNc1ncnc2c1ncn2[C@@H]1O[C@H](CO)C(O)C1O)c1ccncc1 (stereo partly drawn)", "measured.value": 60}
{"compound": "c1ccc(C(=NNc2ncnc3[nH]cnc23)c2ccccn2)cc1", "measured.value": 1.4}
{"compound": "CC(=NNc1ncnc2c1ncn2C1O[C@H](CO)[C@@](C)(O)[C@H]1O)c1ccccn1 (stereo partly drawn)", "measured.value": 21}
{"compound": "CC(=NNc1ncnc2c1ncn2[C@@H]1O[C@H](CO)C(O)C1O)c1cccnc1 (stereo partly drawn)", "measured.value": 25}
{"compound": "CC(=NNc1ncnc2c1ncn2C1O[C@H](CO)[C@@](C)(O)[C@H]1O)c1cccnc1 (stereo partly drawn)", "measured.value": 17}

Items follow; give GI50 for each.
1. Cc1ccc(C=NNc2ncnc3[nH]cnc23)s1
2. N#Cc1ccccc1C=NNc1ncnc2c1ncn2C1O[C@H](CO)[C@@H](O)[C@H]1O (stereo partly drawn)

[38, 0.8]

For this compound ( CC(C)=NNc1ncnc2c1ncn2C1O[C@H](CO)[C@@H](O)[C@H]1O (stereo partly drawn) ), measured GI50 is 0.6

* * *

System: human breast carcinoma MCF-7
Assay: MTS cytotoxicity assay, MCF-7
Format: cell-based
Settings: 48 h incubation
Please respond with reported GI50 for every item in the list.
Answers are plain numbers, in µM.

Check out these entries, answers already filled in.
{"compound": "OC[C@H]1OC(n2cnc3c(NN=C(c4ccccn4)c4ccccn4)ncnc32)[C@H](O)[C@@H]1O (stereo partly shown) [I-13]", "u": "µM", "measured.value": 0.9}
{"compound": "OC[C@H]1OC(n2cnc3c(NN=Cc4ccccn4)ncnc32)[C@H](O)[C@@H]1O (stereo partly shown) [I-9]", "u": "µM", "measured.value": 2}
{"compound": "OC[C@H]1OC(n2cnc3c(NN=Cc4ccncc4)ncnc32)[C@H](O)[C@@H]1O (stereo partly shown) [I-11]", "u": "µM", "measured.value": 70}

Items follow; give GI50 for each.
1. C[C@@]1(O)[C@@H](CO)OC(n2cnc3c(NN=Cc4ccccn4)ncnc32)[C@@H]1O (stereo partly shown) [I-4]
2. OC[C@H]1OC(n2cnc3c(NN=Cc4ccccc4)ncnc32)[C@H](O)[C@@H]1O (stereo partly shown) [I-16]
3. OC[C@H]1OC(n2cnc3c(NN=Cc4cccnc4)ncnc32)[C@H](O)[C@@H]1O (stereo partly shown) [I-10]
4. C(=NNc1ncnc2[nH]cnc12)c1ccc[nH]1 [I-22]

1: 22; 2: 10; 3: 14; 4: 9.2

* * *

Please respond with reported GI50 for every item in the list.
System: human colon carcinoma HT-29
Assay: MTS cytotoxicity assay, HT-29
Assay type: cell-based
Conditions: 48 h incubation
Protocol: In order to obtain information about the growth-inhibiting action of hydrazones reported in the present invention on tumor cells, growth inhibition was assessed for the following human tumor cell lines: human myelogenous leukemia K562, human cervical adenocarcinoma HeLa, human colon adenocarcinoma Caco-2, human colon carcinoma HT-29, human colon carcinoma HCT-15, and human breast carcinoma MCF-7. […]
Give bare numbers, in µM.

Check out these entries, answers already filled in.
{"compound": "OC[C@H]1OC(n2cnc3c(NN=Cc4ccncc4)ncnc32)[C@H](O)[C@@H]1O (stereo partly shown)", "measured.attribute": "GI50", "u": "µM", "measured.value": 79}
{"compound": "C[C@@]1(O)[C@@H](CO)OC(n2cnc3c(NN=Cc4ccccn4)ncnc32)[C@@H]1O (stereo partly shown)", "measured.attribute": "GI50", "u": "µM", "measured.value": 27}
{"compound": "OC[C@H]1OC(n2cnc3c(NN=Cc4cccnc4)ncnc32)[C@H](O)[C@@H]1O (stereo partly shown)", "measured.attribute": "GI50", "u": "µM", "measured.value": 18}
{"compound": "OC[C@H]1OC(n2cnc3c(NN=Cc4ccccc4)ncnc32)[C@H](O)[C@@H]1O (stereo partly shown)", "measured.attribute": "GI50", "u": "µM", "measured.value": 13}
{"compound": "C(=NNc1ncnc2[nH]cnc12)c1ccc[nH]1", "measured.attribute": "GI50", "u": "µM", "measured.value": 6.9}
{"compound": "OC[C@H]1OC(n2cnc3c(NN=C(c4ccccn4)c4ccccn4)ncnc32)[C@H](O)[C@@H]1O (stereo partly shown)", "measured.attribute": "GI50", "u": "µM", "measured.value": 0.8}

// below: GI50 requested for another compound
For this compound ( OC[C@H]1OC(n2cnc3c(NN=Cc4ccccn4)ncnc32)[C@H](O)[C@@H]1O (stereo partly shown) ), measured GI50 is 2

* * *

System: HL60-VCR
Assay: MTS cytotoxicity on MDR tumor cells, HL60-VCR
Type: cell-based
Conditions: Vincristine (VCR) resistant, 72 hr incubation
measured.attribute: GI50 (nM)
One number for each entry, in nM.

Tested system HL60-VCR; GI50 recorded for OC[C@H]1OC(n2cnc3c(NN=Cc4ccccn4)ncnc32)[C@H](O)[C@@H]1O (stereo partly shown) [I-9] was 1500

* * *

Please respond with reported GI50 for every item in the list.
System: human cervical adenocarcinoma HeLa
Test: MTS cytotoxicity assay, HeLa
Assay type: cell-based
Settings: Homo sapiens, HeLa, 48 h incubation
One number for each entry, in µM.

Check out these entries, answers already filled in.
{"compound": "CC(=NNc1ncnc2c1ncn2[C@@H]1O[C@H](CO)C(O)C1O)c1ccccn1 (some centres unmarked) [I-6]", "measured.value": 12}
{"compound": "C(=NNc1ncnc2[nH]cnc12)c1ccccn1 [I-18]", "measured.value": 1.9}
{"compound": "Cc1ccc(C=NNc2ncnc3c2ncn3C2O[C@H](CO)[C@@H](O)[C@H]2O)s1 (some centres unmarked) [I-15]", "measured.value": 4.3}
{"compound": "C[C@]1(O)C(O)[C@H](n2cnc3c(NN=C(c4ccccc4)c4ccccn4)ncnc32)O[C@@H]1CO (some centres unmarked) [I-1]", "measured.value": 68.9}

// below: GI50 requested for another compound
For this compound ( CC(=NNc1ncnc2c1ncn2C1O[C@H](CO)[C@@H](O)[C@H]1O)c1ccccc1 (some centres unmarked) [I-17] ), measured GI50 is 1.6

* * *

System: human myelogenous leukemia K562
Assay: MTS cytotoxicity assay, K562
Type: cell-based
Settings: 48 h incubation
Entries whose GI50 is below 20 µM take satisfied; entries at or above 20 µM take not satisfied.

Reference set, count: 2
{"compound": "C[C@@]1(O)[C@@H](CO)OC(n2cnc3c(NN=Cc4ccccn4)ncnc32)[C@@H]1O (stereo partly shown) [I-4]", "class.name": "satisfied"}
{"compound": "OC[C@H]1OC(n2cnc3c(NN=C(c4ccccn4)c4ccccn4)ncnc32)[C@H](O)[C@@H]1O (stereo partly shown) [I-13]", "class.name": "satisfied"}

hey, is GI50 for OC[C@H]1OC(n2cnc3c(NN=Cc4ccncc4)ncnc32)[C@H](O)[C@@H]1O (stereo partly shown) [I-11] lower than 20 µM or not?
not satisfied

hey, is GI50 for C(=NNc1ncnc2[nH]cnc12)c1ccc[nH]1 [I-22] lower than 20 µM or not?
satisfied

hey, is GI50 for OC[C@H]1OC(n2cnc3c(NN=Cc4cccnc4)ncnc32)[C@H](O)[C@@H]1O (stereo partly shown) [I-10] lower than 20 µM or not?
not satisfied

hey, is GI50 for OC[C@H]1OC(n2cnc3c(NN=Cc4ccccn4)ncnc32)[C@H](O)[C@@H]1O (stereo partly shown) [I-9] lower than 20 µM or not?
satisfied

hey, is GI50 for OC[C@H]1OC(n2cnc3c(NN=Cc4ccccc4)ncnc32)[C@H](O)[C@@H]1O (stereo partly shown) [I-16] lower than 20 µM or not?
satisfied
